Documented Activity across a set of compounds
System: J774
method-summary: Cytotoxicity against mouse J774 cells at 50 uM incubated for 72 hrs by MTT assay relative to control
Format: toxicity, cell-based
test-parameters: j774, 72 h
Output spec: scalar in %, unitless text.

Cn1c(-c2ccc(OCC(=O)Nc3ccc([N+](=O)[O-])cc3)cc2)nc2ccccc2c1=O 55.85
COc1cc(NC(=O)COc2ccc(-c3nc4ccccc4c(=O)n3C)cc2)cc(OC)c1OC 39.78
Cn1c(-c2ccc(OCC(=O)Nc3cccc(C(F)(F)F)c3)cc2)nc2ccccc2c1=O 48.49
Cn1c(-c2ccc(OCC(=O)Nc3ccccn3)cc2)nc2ccccc2c1=O 52.15
Cn1c(-c2cccc(OCC(=O)Nc3ccc(F)cc3)c2)nc2ccccc2c1=O 31.32
Cn1c(-c2ccc(OCC(=O)Nc3ccccn3)cc2)nc2cc(F)ccc2c1=O 30.36

Fill blank: measured Activity of the compound "CC(C)c1ccc(NC(=O)COc2ccc(-c3nc4ccccc4c(=O)n3C)cc2)cc1" is ____.
49.31

Suppose we examine the compound "Cn1c(-c2ccc(OCC(=O)Nc3ccncc3)cc2)nc2ccccc2c1=O" ; what Activity value has been reported?
40.96

Reported Activity, compound "CCn1c(-c2ccc(OCC(=O)Nc3ccc(F)cc3)cc2)nc2ccccc2c1=O" : ____
34.39

Requested read-out: Activity. Entry: "CCc1ccc(NC(=O)COc2ccc(-c3nc4ccccc4c(=O)n3C)cc2)cc1"
33.38

Any idea what Activity was measured for "CCCCCCCCCCCCCCCCOP(=O)([O-])OCC[N+](C)(C)C" ?
53.21

Name the reported Activity value associated with the compound "COc1ccc(NC(=O)COc2ccc(-c3nc4ccccc4c(=O)n3C)cc2)cc1"
35.93

I have this compound here, "CCn1c(-c2ccc(OCC(=O)Nc3ccc(C)cc3)cc2)nc2ccccc2c1=O" , and I need its recorded Activity.
37.91

Look at this compound and give its reported Activity. "CCn1c(-c2ccc(OCC(=O)Nc3ccccc3)cc2)nc2ccccc2c1=O"
42.29

Using the record for "Cn1c(-c2cccc(OCC(=O)Nc3cccc(C(F)(F)F)c3)c2)nc2ccccc2c1=O" , report its Activity.
36.03

Name the recorded Activity for "CCn1c(-c2ccc(OCC(=O)Nc3cccc(C(F)(F)F)c3)cc2)nc2ccccc2c1=O" .
47.72

// query Activity value for entry "Cn1c(-c2ccc(OCC(=O)Nc3cccc4cccnc34)cc2)nc2ccccc2c1=O"
42.14

What does the data say about its Activity? Entry: "Cc1ccc(NC(=O)COc2cccc(-c3nc4ccccc4c(=O)n3C)c2)cc1"
31.44

Could you tell me which Activity is on file for "CCn1c(-c2ccc(OCC(=O)Nc3ccc(Cl)cc3)cc2)nc2ccccc2c1=O" ?
32.52

For "CCn1c(-c2ccc(OCC(=O)Nc3ccc(OC)cc3)cc2)nc2ccccc2c1=O" , what is its reported Activity?
43.01

###

method-summary: Stability of the compound in stimulated gastric fluid at 10 ug/ml at pH 1.2 measured upto 120 min by HPLC analysis
Format: ADME
test-parameters: simulated gastric fluid, at 10 µg/mL, read-out: Stability
The entries below are paired with their reported remaining at 2 h, 10 ug/ml.
Only the number, expressed in %, is required.

CCn1c(-c2ccc(OCC(=O)Nc3ccccc3)cc2)nc2ccccc2c1=O 88.8

Then there is this compound:
Which value of remaining at 2 h, 10 ug/ml has been reported for "Cn1c(-c2ccc(OCC(=O)Nc3ccccn3)cc2)nc2ccccc2c1=O" in the records?
94.5

###

System: J774
method-summary: Cytotoxicity against mouse J774 cells at 12.5 uM incubated for 72 hrs by MTT assay relative to control
Assay type: toxicity, cell-based
test-parameters: j774, 72 h
# Activity annotations
Numbers only; they are read as %.

Reported Activity for "COc1ccc(NC(=O)COc2ccc(-c3nc4ccccc4c(=O)n3C)cc2)cc1" : what is it?
83.71

Please look up its Activity: "Cn1c(-c2cccc(OCC(=O)Nc3cccc(C(F)(F)F)c3)c2)nc2ccccc2c1=O"
69.23

May I ask what Activity has been recorded for "CCn1c(-c2ccc(OCC(=O)Nc3ccccn3)cc2)nc2ccccc2c1=O" ?
84.82

So what's the measured Activity for this one? "Cn1c(-c2ccc(OCC(=O)Nc3ccccc3)cc2)nc2ccccc2c1=O"
87.94

Report Activity for "Cn1c(-c2cccc(OCC(=O)Nc3ccc(F)cc3)c2)nc2ccccc2c1=O" please.
66.92

Give its Activity value. Item: "CCCCCCCCCCCCCCCCOP(=O)([O-])OCC[N+](C)(C)C"
85.44

Look at this compound and give its reported Activity. "Cn1c(-c2ccc(OCC(=O)Nc3cccc(C(F)(F)F)c3)cc2)nc2ccccc2c1=O"
86.45

###

Test system: J774
method-summary: Cytotoxicity against mouse J774 cells at 12.5 uM incubated for 72 hrs by MTT assay relative to control
Assay type: toxicity, cell-based
test-parameters: j774, 72 h
Reported Activity by item:
Could you give me the number in %? Just the number is fine.

Known Activity results, listed for orientation:
CCn1c(-c2ccc(OCC(=O)Nc3ccc(F)cc3)cc2)nc2ccccc2c1=O 59.51
Cc1ccc(NC(=O)COc2ccc(-c3nc4ccccc4c(=O)n3C)cc2)cc1C 67.4
CCc1ccc(NC(=O)COc2ccc(-c3nc4ccccc4c(=O)n3C)cc2)cc1 81.78
COc1cc(NC(=O)COc2ccc(-c3nc4ccccc4c(=O)n3C)cc2)cc(OC)c1OC 69.04
Cn1c(-c2ccc(OCC(=O)Nc3ccncc3)cc2)nc2ccccc2c1=O 71.91

Give its Activity value. Item: "Cc1ccc(NC(=O)COc2ccc(-c3nc4ccccc4c(=O)n3C)cc2)cc1"
85.59

Can you share its Activity? I mean this molecule: "Cn1c(-c2ccc(OCC(=O)Nc3ccc(C(C)(C)C)cc3)cc2)nc2ccccc2c1=O"
59.75

Which value of Activity has been reported for "Cn1c(-c2ccc(OCC(=O)Nc3ccccn3)cc2)nc2ccccc2c1=O" in the records?
90.78

Report Activity for "Cn1c(-c2cccc(OCC(=O)Nc3ccc(Cl)cc3)c2)nc2ccccc2c1=O" please.
84.53

State the recorded Activity for this entry: "Cc1ccc(NC(=O)COc2cccc(-c3nc4ccccc4c(=O)n3C)c2)cc1"
65.55

###

Test system: J774
method-summary: Cytotoxicity against mouse J774 cells at 12.5 uM incubated for 72 hrs by MTT assay relative to control
Type: toxicity, cell-based
test-parameters: j774, 72 h
Assign criterion met to entries whose Activity meets or exceeds 80%; assign criterion not met to the rest.

Answered cases to consult:
CCn1c(-c2ccc(OCC(=O)Nc3ccc(Cl)cc3)cc2)nc2ccccc2c1=O criterion not met
Cc1ccc(NC(=O)COc2ccc(-c3nc4ccccc4c(=O)n3C)cc2)cc1Cl criterion not met
CCn1c(-c2ccc(OCC(=O)Nc3cccc(C(F)(F)F)c3)cc2)nc2ccccc2c1=O criterion met
Cn1c(-c2ccc(OCC(=O)Nc3cccc4cccnc34)cc2)nc2ccccc2c1=O criterion met
Cn1c(-c2ccc(OCC(=O)Nc3ccc([N+](=O)[O-])cc3)cc2)nc2ccccc2c1=O criterion met

Say whether "Cn1c(-c2ccc(OCC(=O)Nc3ccccn3)cc2)nc2cc(F)ccc2c1=O" shows Activity of 80% or more.
criterion met

Kindly determine if Activity recorded for "Cn1c(-c2ccc(OCC(=O)Nc3ccc(Cl)cc3)cc2)nc2ccccc2c1=O" is above or exactly 80%.
criterion met

Determine whether measured Activity meets or exceeds 80% for "CCn1c(-c2ccc(OCC(=O)Nc3ccc(C)cc3)cc2)nc2ccccc2c1=O"
criterion met

Item "CCn1c(-c2ccc(OCC(=O)Nc3ccc(OC)cc3)cc2)nc2ccccc2c1=O" with Activity of 80% or above?
criterion not met

For this molecule, is measured Activity 80% or higher? "CCn1c(-c2ccc(OCC(=O)Nc3ccccc3)cc2)nc2ccccc2c1=O"
criterion met

###

Tested on: J774
method-summary: Cytotoxicity against mouse J774 cells at 25 uM incubated for 72 hrs by MTT assay relative to control
Type: toxicity, cell-based
test-parameters: j774, 72 h
test-readout: Activity (%)
Record the value in %, omitting the unit from your answer.

Some solved cases for reference:
Cn1c(-c2ccc(OCC(=O)Nc3ccncc3)cc2)nc2ccccc2c1=O 51.89
CCn1c(-c2ccc(OCC(=O)Nc3cccc(C(F)(F)F)c3)cc2)nc2ccccc2c1=O 77.31

What does the data say about its Activity? Entry: "CC(C)c1ccc(NC(=O)COc2ccc(-c3nc4ccccc4c(=O)n3C)cc2)cc1"
67.4

Query (compound): "Cn1c(-c2ccc(OCC(=O)Nc3ccc(C(C)(C)C)cc3)cc2)nc2ccccc2c1=O" ; field requested: Activity
55.66

So what's the measured Activity for this one? "Cn1c(-c2ccc(OCC(=O)Nc3cccc4cccnc34)cc2)nc2ccccc2c1=O"
76.21

What Activity value was documented for this compound, "Cn1c(-c2ccc(OCC(=O)Nc3ccc4c(c3)OCO4)cc2)nc2ccccc2c1=O" ?
78.08

Please report the recorded Activity for "CCc1ccc(NC(=O)COc2ccc(-c3nc4ccccc4c(=O)n3C)cc2)cc1" .
79.14

# query: Activity of entry "Cc1ccc(NC(=O)COc2ccc(-c3nc4ccccc4c(=O)n3C)cc2)cc1Cl"
52.13

Given "COc1ccc(NC(=O)COc2ccc(-c3nc4ccccc4c(=O)n3C)cc2)cc1" , state its recorded Activity.
78.71

Which Activity reading was recorded for the compound "Cn1c(-c2ccc(OCC(=O)Nc3ccc([N+](=O)[O-])cc3)cc2)nc2ccccc2c1=O" ?
80.58

I am curious: what Activity value has been reported for "COc1cc(NC(=O)COc2ccc(-c3nc4ccccc4c(=O)n3C)cc2)cc(OC)c1OC" ?
51.67

Field request: Activity | item: "CCn1c(-c2ccc(OCC(=O)Nc3ccc(F)cc3)cc2)nc2ccccc2c1=O"
43.73

Entry "Cn1c(-c2ccc(OCC(=O)Nc3ccccc3)cc2)nc2ccccc2c1=O" : reported Activity = ?
78.47

Recorded Activity for "Cn1c(-c2ccc(OCC(=O)Nc3ccccn3)cc2)nc2ccccc2c1=O" , please?
79.57

Can you look up the measured Activity of "CCn1c(-c2ccc(OCC(=O)Nc3ccccc3)cc2)nc2ccccc2c1=O" for me?
77.94

Quick check: Activity of "Cc1ccc(NC(=O)COc2ccc(-c3nc4ccccc4c(=O)n3C)cc2)cc1C" ?
46.38

May I ask what Activity has been recorded for "Cn1c(-c2cccc(OCC(=O)Nc3cccc(C(F)(F)F)c3)c2)nc2ccccc2c1=O" ?
53.5

What value of Activity has been recorded for this entry: "Cn1c(-c2ccc(OCC(=O)Nc3ccccn3)cc2)nc2ccc(Cl)cc2c1=O"
59.37

Need Activity, item "Cn1c(-c2cccc(OCC(=O)Nc3ccc(Cl)cc3)c2)nc2ccccc2c1=O"
71.35
